- Tested on: leukotriene B4 production by neutrophils
- Experiment summary: Measurement of Inhibitory Effect on Inflammatory Mediator Production by Leukocytes (ionomycin-induced leukotriene B4 in neutrophils)
- Format: cell-based
- Condition: 0.5 h, human neutrophil suspension, 37° C. 30 minutes, EIA
Counter-ions that a name gives are not always drawn.
Metric: IC50 (µM)

Some compounds with recorded IC50:
{"Compound": "COC1(c2ccc(/C=C/CC(NC(=O)c3c(Cl)cccc3Cl)C(=O)O)cc2)CCOCC1 (stereo not drawn)", "Assayed target": "leukotriene B4 production by neutrophils", "Endpoint unit": "µM", "IC50": 52.3}
{"Compound": "CN(c1ccc(/C=C/CC(NC(=O)c2c(Cl)cccc2Cl)C(=O)O)cc1)c1ncccn1 (stereo not drawn)", "Assayed target": "leukotriene B4 production by neutrophils", "Endpoint unit": "µM", "IC50": 176}
{"Compound": "CCOC1(c2ccc(/C=C/CC(NC(=O)c3c(Cl)cccc3Cl)C(=O)O)cc2)CCOCC1 (stereo not drawn)", "Assayed target": "leukotriene B4 production by neutrophils", "Endpoint unit": "µM", "IC50": 5.63}
{"Compound": "Cc1cccc(Cl)c1C(=O)NC(C/C=C/c1ccc(N(C)c2ncccn2)cc1)C(=O)O (stereo not drawn)", "Assayed target": "leukotriene B4 production by neutrophils", "Endpoint unit": "µM", "IC50": 30}

1: O=C(NC(C/C=C/c1ccc(N(Cc2ccccc2)c2ncccn2)cc1)C(=O)O)c1c(Cl)cccc1Cl (stereo not drawn) [Example 33, sodium salt]
2: CC(C)N(c1ccc(/C=C/CC(NC(=O)c2c(Cl)cccc2Cl)C(=O)O)cc1)c1ncccn1 (stereo not drawn)
[in] // max by IC50 over [ 1 , 2 ] Please identify the chosen entry by its label.
[out] 1

Source: patent US7566724B2
